Hey, just so you know, these numbers are from ChEMBL document CHEMBL5252592.

Reported IC50 is given for each of the following molecules.
- Test system: U-937
- experimentDescription: Antiproliferative activity against human U-937 cells assessed as inhibition of cell growth
- Type: functional, cell-based
Please reply with the bare figure in nM and do not write the unit itself.

Answered cases to consult:
Input line: I have this molecule here, COc1cc(Nc2nccc(-c3ccc4c(c3)OCO4)n2)cc(OC)c1OC , and I need its recorded IC50.
Output line: 370

Input line: Entry to check: COc1cc(Nc2nccc(-c3ccc4occc4c3)n2)cc(OC)c1OC
Output line: 40

Input line: Entry to check: COc1cc(Nc2nccc(-c3cc4ccccc4s3)n2)cc(OC)c1OC
Output line: 120

Turning now to a further molecule:
Input line: I have this molecule here, COc1cc(Nc2cc(-c3ccc4occc4c3)nc(N)n2)cc(OC)c1OC , and I need its recorded IC50.
Output line: 2410

====

Reported pIC50 is given for each of the following molecules.
- Tested on: A549
- experimentDescription: Antiproliferative activity against human A549 cells assessed as inhibition of cell growth
- Type: functional, cell-based
Worth noting: pIC50 values are minus log10 of concentrations stated in mol/L.

Answered cases to consult:
Input line: Reported pIC50 for A549, given COc1cc(Nc2ccnc(-c3csc4ccccc34)n2)cc(OC)c1OC ?
Output line: 5.51

Input line: Entry to check: COc1cc(Nc2ccnc(-c3coc4ccccc34)n2)cc(OC)c1OC
Output line: 5.85

Input line: Entry to check: COc1cc(Nc2nccc(-c3ccc4[nH]c5ccccc5c4c3)n2)cc(OC)c1OC
Output line: 5.51

Input line: Entry to check: COc1cc(Nc2cc(-c3coc4ccccc34)nc(N)n2)cc(OC)c1OC
Output line: 5.77

Input line: Entry to check: COc1cc(Nc2nccc(-c3ccc4ncccc4c3)n2)cc(OC)c1OC
Output line: 5.75

Continuing:
Input line: Reported pIC50 for A549, given COc1cc(Nc2cc(-c3ccc4occc4c3)nc(N)n2)cc(OC)c1OC ?
Output line: 5.35

Input line: Entry to check: COc1cc(Nc2nccc(-c3coc4ccccc34)n2)cc(OC)c1OC
Output line: 5.42

Input line: Entry to check: COc1cc(Nc2nccc(-c3cc4ccccc4s3)n2)cc(OC)c1OC
Output line: 6.34

Input line: Entry to check: COc1cc(Nc2nccc(-c3ccc4cc[nH]c4c3)n2)cc(OC)c1OC
Output line: 6.07

====

Reported pIC50 is given for each of the following compounds.
- Tested on: A549
- experimentDescription: Antiproliferative activity against human A549 cells assessed as inhibition of cell growth
- Assay type: functional, cell-based
Worth noting: pIC50 values are minus log10 of concentrations stated in mol/L.

Answered cases to consult:
Input line: I have this compound here, COc1cc(Nc2nccc(-c3ccc4c(c3)OCCO4)n2)cc(OC)c1OC , and I need its recorded pIC50.
Output line: 6.10

Input line: Entry to check: COc1cc(Nc2nccc(-c3ccc4c(c3)CCO4)n2)cc(OC)c1OC
Output line: 6.14

Input line: Entry to check: COc1cc(Nc2nccc(-c3cc4ccccc4o3)n2)cc(OC)c1OC
Output line: 5.64

Input line: Entry to check: COc1cc(Nc2ccnc(-c3ccc4[nH]c5ccccc5c4c3)n2)cc(OC)c1OC
Output line: 5.41

Turning now to a further compound:
Input line: I have this compound here, COc1cc(Nc2nccc(-c3ccc4c(c3)OCO4)n2)cc(OC)c1OC , and I need its recorded pIC50.
Output line: 5.50

====

- Tested on: A549
- experimentDescription: Antiproliferative activity against human A549 cells assessed as inhibition of cell growth
- Type: functional, cell-based
pIC50: −log10 of the molar value.
Reported pIC50 is given for each of the following molecules.

Input line: I have this molecule here, COc1cc(Nc2cc(-c3cc4ccccc4o3)ncn2)cc(OC)c1OC , and I need its recorded pIC50.
Output line: < 5.00

Input line: Entry to check: COc1cc(Nc2cc(-c3csc4ccccc34)nc(N)n2)cc(OC)c1OC
Output line: < 5.00

Input line: Entry to check: COc1cc(Nc2cc(-c3ccc4cc[nH]c4c3)nc(N)n2)cc(OC)c1OC
Output line: 5.72

Input line: Entry to check: COc1cc(Nc2cc(-c3ccc4c(c3)OCO4)ncn2)cc(OC)c1OC
Output line: < 5.00

Continuing:
Input line: I have this molecule here, COc1cc(Nc2ccnc(-c3cc4ccccc4s3)n2)cc(OC)c1OC , and I need its recorded pIC50.
Output line: < 5.00

Input line: Entry to check: COc1cc(Nc2cc(-c3ccc4[nH]c5ccccc5c4c3)ncn2)cc(OC)c1OC
Output line: 5.52

Input line: Entry to check: COc1cc(Nc2ccnc(-c3ccc4c(c3)CCO4)n2)cc(OC)c1OC
Output line: < 5.00

Input line: Entry to check: COc1cc(Nc2ccnc(-c3ccc4cc[nH]c4c3)n2)cc(OC)c1OC
Output line: < 5.00

Input line: Entry to check: COc1cc(Nc2nccc(-c3ccc4occc4c3)n2)cc(OC)c1OC
Output line: 5.75

Input line: Entry to check: COc1cc(Nc2cc(-c3cc4ccccc4s3)ncn2)cc(OC)c1OC
Output line: < 5.00

====

- Test system: U-937
- experimentDescription: Antiproliferative activity against human U-937 cells assessed as inhibition of cell growth
- Assay type: functional, cell-based
readout: pIC50
Worth noting: pIC50 values are minus log10 of concentrations stated in mol/L.

Answered cases to consult:
Input line: I have this compound here, COc1cc(Nc2nccc(-c3ccc4sc5ccccc5c4c3)n2)cc(OC)c1OC , and I need its recorded pIC50.
Output line: 5.14

Input line: Entry to check: COc1cc(Nc2nccc(-c3csc4ccccc34)n2)cc(OC)c1OC
Output line: 5.75

Input line: Entry to check: COc1cc(Nc2cc(-c3ccc4cc[nH]c4c3)nc(N)n2)cc(OC)c1OC
Output line: 5.67

Continuing:
Input line: I have this compound here, COc1cc(Nc2nccc(-c3ccc4cc[nH]c4c3)n2)cc(OC)c1OC , and I need its recorded pIC50.
Output line: 6.92

Input line: Entry to check: COc1cc(Nc2ccnc(-c3csc4ccccc34)n2)cc(OC)c1OC
Output line: 5.81

Input line: Entry to check: COc1cc(Nc2ccnc(-c3ccc4[nH]c5ccccc5c4c3)n2)cc(OC)c1OC
Output line: 5.88

Input line: Entry to check: COc1cc(Nc2nccc(-c3ccc4[nH]c5ccccc5c4c3)n2)cc(OC)c1OC
Output line: 6.05

Input line: Entry to check: COc1cc(Nc2nccc(-c3ccc4c(c3)OCCO4)n2)cc(OC)c1OC
Output line: 7.15

Input line: Entry to check: COc1cc(Nc2nccc(-c3ccc4ncccc4c3)n2)cc(OC)c1OC
Output line: 6.01

Input line: Entry to check: COc1cc(Nc2cc(-c3ccc4[nH]c5ccccc5c4c3)ncn2)cc(OC)c1OC
Output line: 5.40

Input line: Entry to check: COc1cc(Nc2ccnc(-c3coc4ccccc34)n2)cc(OC)c1OC
Output line: 6.05

Input line: Entry to check: COc1cc(Nc2nccc(-c3coc4ccccc34)n2)cc(OC)c1OC
Output line: 5.45

====

- Test system: U-937
- experimentDescription: Antiproliferative activity against human U-937 cells assessed as inhibition of cell growth
- Type: functional, cell-based
pIC50: −log10 of the molar value.
readout: pIC50

Input line: I have this compound here, COc1cc(Nc2nccc(-c3cc4ccccc4o3)n2)cc(OC)c1OC , and I need its recorded pIC50.
Output line: 6.47

Input line: Entry to check: COc1cc(Nc2cc(-c3csc4ccccc34)nc(N)n2)cc(OC)c1OC
Output line: < 5.00

Input line: Entry to check: COc1cc(Nc2ccnc(-c3ccc4c(c3)OCCO4)n2)cc(OC)c1OC
Output line: < 5.00

Input line: Entry to check: COc1cc(Nc2nccc(-c3ccc4c(c3)CCO4)n2)cc(OC)c1OC
Output line: 6.59

Continuing:
Input line: I have this compound here, COc1cc(Nc2cc(-c3coc4ccccc34)nc(N)n2)cc(OC)c1OC , and I need its recorded pIC50.
Output line: 5.85

Input line: Entry to check: COc1cc(Nc2ccnc(-c3cc4ccccc4s3)n2)cc(OC)c1OC
Output line: < 5.00

Input line: Entry to check: COc1cc(Nc2ccnc(-c3ccc4occc4c3)n2)cc(OC)c1OC
Output line: < 5.00

====

- Test system: U-937
- experimentDescription: Antiproliferative activity against human U-937 cells assessed as inhibition of cell growth
- Type: functional, cell-based
pIC50: −log10 of the molar value.
readout: pIC50

Answered cases to consult:
Input line: I have this molecule here, COc1cc(Nc2cc(-c3ccc4c(c3)OCO4)ncn2)cc(OC)c1OC , and I need its recorded pIC50.
Output line: < 5.00

Input line: Entry to check: COc1cc(Nc2cc(-c3ccc4cc[nH]c4c3)ncn2)cc(OC)c1OC
Output line: < 5.00

Input line: Entry to check: COc1cc(Nc2cc(-c3cc4ccccc4s3)nc(N)n2)cc(OC)c1OC
Output line: < 5.00

Input line: Entry to check: COc1cc(Nc2cc(-c3cc4ccccc4o3)nc(N)n2)cc(OC)c1OC
Output line: < 5.00

Input line: Entry to check: COc1cc(Nc2ccnc(-c3ccc4c(c3)CCO4)n2)cc(OC)c1OC
Output line: < 5.00

Turning now to a further molecule:
Input line: I have this molecule here, COc1cc(Nc2cc(-c3ccc4c(c3)OCCO4)nc(N)n2)cc(OC)c1OC , and I need its recorded pIC50.
Output line: < 5.00
